System: Escherichia coli TOP10;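 further: peptides expressed intracellularly from a pBAD plasmid library in pooled LB shake-flask culture, induced with 0.3% L-arabinose, DNA abundance read by NGS, three biological replicates, DESeq2 with apeglm shrinkage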
Test: shrunken log2 fold change of peptide-encoding DNA abundance (4.5 h post-induction vs induction); higher = less antimicrobial activity (less host growth inhibition)
Conditions: time post-induction: 4.5 h; library: site-saturation at positions 5, 18, 19, 20
Below, each of the sequences is paired with its reported shrunken log2 fold change value.

- residue_codes: "RRIRNRPPRLPRPRPRPRTGPRP"
  shrunken log2 fold change: -0.0238
- residue_codes: "RRIRQRPPRLPRPRPRPYSTPRP"
  shrunken log2 fold change: -0.0896
- residue_codes: "RRIRHRPPRLPRPRPRPISEPRP"
  shrunken log2 fold change: -0.0415
- residue_codes: "RRIRLRPPRLPRPRPRPQKEPRP"
  shrunken log2 fold change: 0.0466
- residue_codes: "RRIRSRPPRLPRPRPRPPFFPRP"
  shrunken log2 fold change: 0.143
- residue_codes: "RRIRIRPPRLPRPRPRPPHWPRP"
  shrunken log2 fold change: 0.0943
- residue_codes: "RRIRPRPPRLPRPRPRPCMGPRP"
  shrunken log2 fold change: -0.398
- residue_codes: "RRIRCRPPRLPRPRPRPMMEPRP"
  shrunken log2 fold change: -0.105
- residue_codes: "RRIRVRPPRLPRPRPRPDGCPRP"
  shrunken log2 fold change: 0.101
- residue_codes: "RRIRGRPPRLPRPRPRPVSMPRP"
  shrunken log2 fold change: 0.401
- residue_codes: "RRIRWRPPRLPRPRPRPCNGPRP"
  shrunken log2 fold change: -0.0973
- residue_codes: "RRIRTRPPRLPRPRPRPMSGPRP"
  shrunken log2 fold change: -0.137
- residue_codes: "RRIRERPPRLPRPRPRPRYNPRP"
  shrunken log2 fold change: -0.672
- residue_codes: "RRIRTRPPRLPRPRPRPKVMPRP"
  shrunken log2 fold change: -0.243
- residue_codes: "RRIRSRPPRLPRPRPRPNCEPRP"
  shrunken log2 fold change: -0.133

Source listed as the supplement of paper PMC9112550.
